# System: Enterobacter cloacae
# procedureDetails: Tested for in vitro antibacterial activity against Enterobacter cloacae P99
# Format: functional
Please respond with reported MIC for every item in the list.
One number for each entry, in µg/mL.

molecule=O=C(O)c1cn(C2CC2)c2cc(N3CCN(C(=O)Cn4nnnc4S)CC3)c(F)cc2c1=O targetdesc="Enterobacter cloacae" readoutkind=MIC testvalue=2

Please give MIC, item by item, for the list that follows.
1. CO/N=C(/C(=O)NC1C(=O)N2C(C(=O)[O-])=C(CSc3nnnn3CC(=O)N3CCN(c4cc5c(cc4F)c(=O)c(C(=O)O)cn5C4CC4)CC3)CS[C@H]12)c1csc(N)n1.[Na+] (stereo not given in full)
2. O=C(O)c1cn(C2CC2)c2c(F)c(N3CCNCC3)c(F)cc2c1=O

16
0.0078

----------
# System: Escherichia coli
# procedureDetails: Tested for in vitro antibacterial activity against Escherichia coli 257
# Assay type: functional
readoutKind: log10 MIC (log10 of the value in mg/L)
Log10 applied to MIC; unit prior to transform: mg/L.

// solved cases for log10 MIC follow
compound="CO/N=C(/C(=O)NC1C(=O)N2C(C(=O)[O-])=C(CSc3nnnn3CC(=O)O)CS[C@H]12)c1csc(N)n1.[Na+] (stereo not given in full)" targetdesc="Escherichia coli" readoutkind="log10 MIC" testvalue=-0.90
compound="CO/N=C(/C(=O)NC1C(=O)N2C(C(=O)[O-])=C(CSc3nnnn3CC(=O)N3CCN(c4cc5c(cc4F)c(=O)c(C(=O)O)cn5C4CC4)CC3)CS[C@H]12)c1csc(N)n1.[Na+] (stereo not given in full)" targetdesc="Escherichia coli" readoutkind="log10 MIC" testvalue=0.60
compound="CO/N=C(/C(=O)NC1C(=O)N2C(C(=O)[O-])=C(CO)CS[C@H]12)c1csc(N)n1.[Na+] (stereo not given in full)" targetdesc="Escherichia coli" readoutkind="log10 MIC" testvalue=-0.60
compound=O=C(O)c1cn(C2CC2)c2c(F)c(N3CCNCC3)c(F)cc2c1=O targetdesc="Escherichia coli" readoutkind="log10 MIC" testvalue=-2.11

Below: the item to evaluate.
Entry `O=C(O)c1cn(C2CC2)c2cc(N3CCN(C(=O)Cn4nnnc4S)CC3)c(F)cc2c1=O` ; log10 MIC = 0.30

----------
Please respond with reported MIC for every item in the list.
# Test system: Pseudomonas aeruginosa
# procedureDetails: Tested for in vitro antibacterial activity against Pseudomonas aeruginosa 5712
# Assay type: functional
Answers are plain numbers, in mg/L.

// solved cases for MIC follow
molecule=O=C(O)c1cn(C2CC2)c2c(F)c(N3CCNCC3)c(F)cc2c1=O targetdesc="Pseudomonas aeruginosa" testvalue=1
molecule=O=C(O)c1cn(C2CC2)c2cc(N3CCN(C(=O)Cn4nnnc4S)CC3)c(F)cc2c1=O targetdesc="Pseudomonas aeruginosa" testvalue=128

Below: the item to evaluate.
Entry CO/N=C(/C(=O)NC1C(=O)N2C(C(=O)[O-])=C(CSc3nnnn3CC(=O)O)CS[C@H]12)c1csc(N)n1.[Na+] (stereo not given in full) ; MIC = 16
